These data points were gathered from the supplement of paper PMC9170038.

# Test system: K4 kissing-loop RNA reporter
# experiment summary: apparent KD of K4 kissing-loop reporter; higher = weaker reporter binding
# condition set: Eterna round: R107; input ligand: FMN 200 uM
Mark Criterion not met for apparent KD of K4 kissing-loop reporter values under 0.2 µM, and Criterion met for everything at or above.

Solved entries:
sequence	category label
GAAUUAUGUAGAAGGAGCGUCAGAAGGUAUAGGUGCGAGUGAUGUUUGGACCUGUUAAUUUGACAGGUAGGUCGCUACAGAAGGA [KL-SSArg B20 #analogue]	Criterion met
ACCUACGAUCACAAAAGUGAUUGUAGGAUCUAGGAUAUGCUGAAAAGCAGAAGGAGAGUGAUGUUCUCAACUCACGAAAGUGAGA [FmnAX 1 #OpenEnded #K4Late]	Criterion met
UGUACCGAGUCAGGAUAUGGCGUCGAAAGACGAAUGCUAGUGAUGUUAGGGAUCUGCGAAAGCAGUCCAGAAGGGACUUGGUACU [FmnBS 26 G36]	Criterion met
UGACUGGACUGAAGGAGCGCUGAACUCCUAGUGAUGUUAGGAAAACGAGACAAAGUCUCGCGGCAGGUAGGUCGCAGUCUAGUCU	Criterion not met
AUUUAAUUAACUGAUACCAGACUUUUUGUUUUGAUAAUUACUAGUGAUGUUAGUGUUUCUGUCCCUUGGCAGCAGUAUCUACUUA [JR_ExcTheophyB_Sub017]	Criterion not met
CCUAUCUCGUACGAUACCAGUCAAUGAUCUUUGAUCAAUGCCAUCACCGAGUGAUGUUCGGACCCUUGGCAGCGUAUGAGAUGGG [whbob_Ex_Theo_B_sa105]	Criterion met
CCAUCGCUGUUCGAUACCAGUCAUUUUUUAUUUUAUUUUUUUUUUGGAGUGAUGUUCCAAGACCCUUGGCAGCGGAUAGUGAUGG [whbob_SS_Theo_B_th80]	Criterion not met
CGACGCCGGUCGGCCGCCACUCACAGCAGCCAGUGAUGUUGGAUUGUAGCGGAGUGAUGUUUCGCGAGGACCGGGACUGCAGUCG [Same State Tryptophan B GF 12]	Criterion not met
GUAUCGCUAGGAGGAUAUUUCAAUUUGACUCUUUGAGUUAUUACGGAGUGAUGUUCCGAUUUACGGAAAGAAGGCCUAGUGAUAC [FMN B 12]	Criterion not met
GCCGUAGAUUGAAGGAGCGGUUCAUCAAUUCAAGUCGAGUGAUGUUCGACGAUUCUCAGUAACCAGGUAGGUCGCAAUCUACGGC	Criterion not met

Does the reported apparent KD of K4 kissing-loop reporter for AGUGAUGUAUGGCGGUGUGUCACUUAAAAUCAGGAUAUAUAAACAAAUAGAAGGGAUGGCGGAGUGAUGUUCCGCCGGCCGCCAU [FMN A Exl V2] fall at or above the 0.2 µM mark?
Criterion not met

Does the reported apparent KD of K4 kissing-loop reporter for AUAGUGAGCUCGGCCGCCACUCCACUAUGUCAACAGUAGCUCUGUCAUAACCAGUGAUGUUGGUUGAGGACCGGGAGUUAAGACU [theeternabot_exclusion_KL_Trp_B_34] fall at or above the 0.2 µM mark?
Criterion not met

Does the reported apparent KD of K4 kissing-loop reporter for GUGCGGUGGAGGCUACCGCUACUCUGAGAAGGAGCGCAGAUGACUGCAGGUAGGUCGCUUAGAGCUUGCAGUGAUGUUGCAAGUU [Teorzaqu] fall at or above the 0.2 µM mark?
Criterion not met

Does the reported apparent KD of K4 kissing-loop reporter for UGAUACCAGACGGCCGCCACUACACCAGUCAAAGACUGGAUGUGAUGUUCGACCAGUGAUGUUGGUAGGACCGGGUCUGGUAUCU [TrypBX 7 #Palindromic #SwitchBubble #StaticStem] fall at or above the 0.2 µM mark?
Criterion not met

Does the reported apparent KD of K4 kissing-loop reporter for AUCAUUAGUUCGGCCGCCACUCCAGUGAUGUUGGAGGGACGCAUAAUAUGCGCGCGGCCAACUAGGAGGACCGGGAACUUUAAGC [Intionge] fall at or above the 0.2 µM mark?
Criterion not met

Does the reported apparent KD of K4 kissing-loop reporter for ACCACCUGUCUGGAUACCAGUCUUCGAGUGAUGUUGGAAGUUAGCCGGUUCUAUUACCUAGACCCUUGGCAGCCAGGAAUUAUAG [theeternabot_exclusion_KL_Theo_B_17] fall at or above the 0.2 µM mark?
Criterion met

Does the reported apparent KD of K4 kissing-loop reporter for AUUCGUUUUUGUGAUACCAGACAUGUGAGUGAUGUUUACAUAUAUAUUUAAUAUUUAGCUGUCCCUUGGCAGCACUGUUUAUUUA [JR_ExcTheophyB_Sub003] fall at or above the 0.2 µM mark?
Criterion met

Does the reported apparent KD of K4 kissing-loop reporter for CCGAUACAUUAUUCUACGGCCGAGAGUGAUACCAGCCGUAUUUGUGGCCCUUGGCAGCGCAGAUGCAGUGAUGUUGCAUACUUGU [Same State Theophylline A GF 20] fall at or above the 0.2 µM mark?
Criterion not met

Does the reported apparent KD of K4 kissing-loop reporter for GCGCCGGUCUGCUUUAGAGUGAUGUUCUCCCGAGGACCGGUACGGCCGCCACUCGGCCAACGCUAUUAUCUUUGAUCCGCGGUGC [theeternabot_exclusion_KL_Trp_A_41] fall at or above the 0.2 µM mark?
Criterion met

Does the reported apparent KD of K4 kissing-loop reporter for AUGGACUCUUCGGAGUCCGCCUUAAGGGAUACCAGUGAUGUUGGUCACCCUUGGCAGCCUAGAAAGGAAGCCACCAAAGGUGGCA [Omei v1 mod #OpenEnded #Sliding] fall at or above the 0.2 µM mark?
Criterion not met

Does the reported apparent KD of K4 kissing-loop reporter for UCCUGCAAUCGACCACGAAAGUGGAUCGAUACCAGAGUCGAAAGACUCCCUUGGCAGCGAGUGAUGUUCGAGCAGGUAAAAUAAA [#SwitchBubble 23 #K4Late] fall at or above the 0.2 µM mark?
Criterion met

Does the reported apparent KD of K4 kissing-loop reporter for AGCCGAAAGGCGAGUGCUGUCACUCCGGAAGGAGCGCUCAAAAGAGCAGGUAGGUCGCCGGAGUGAUGUUCCGGUGCAGCACUCA [Omei KL Arginine A Exc B v4] fall at or above the 0.2 µM mark?
Criterion met

Does the reported apparent KD of K4 kissing-loop reporter for UCCUGCUGUCUGCCACGAAAGUGGAUUGAUACCAGAGUCGAAAGACUCCCUUGGCAGCGAGUGAUGUUCGAAGCAGGUAAAUAAA [MatMod 2 - Jieux - Exclusion - Theophylline A] fall at or above the 0.2 µM mark?
Criterion met

----------
# System: K4 kissing-loop RNA reporter;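 note: bound reporter read as fluorescence of individual clusters on recovered sequencing chips by microscopy, with normalized cluster intensities fitted with a binding model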
# experiment summary: apparent KD of K4 kissing-loop reporter; higher = weaker reporter binding
# condition set: Eterna round: R107; input ligand: theophylline 20 uM
apparent KD of K4 kissing-loop reporter class ranges: low group (below 200 nM), middle group (200 nM to below 500 nM), high group (500 nM or more)

Solved entries:
sequence	category label
GUAGGAUGAGGAGGAGGAUGAAUUACUGAAGGAGCGCAAAGAAAUGCAGGUAGGUCGCGGUAAAGAAGUAUAGUGAUGUUAUAUC [#08 K4 Arginine A Same State]	high group
ACUGAGUUGACGAAAGUCAACAAUUGAGAAGGAGCGCACGAAAGUGCAGGUAGGUCGCUCAGUCCAGUGAUGUUGGAUCAUCAGA [#17 K4 Arginine A Same State]	middle group
CUGACUCAAUAGUCAGUGAUGUUGACUGGACGAGGACCGGUACGGCCGCCACUCGAGAGUGGUGUAAAAUAUGUCACAGAGUCAG [Tryp A SS t3b]	low group
CUAUCUUAAGAAGGAUAUUAUGUAACAAACGCAGGCGUAUUAGAAUCAGUGAUGUUGAAAUAGGUUUAAGAAGGUCUUAAAGAAA [theeternabot_sameState_KL_FMN_B_31]	high group
GAGGAUAGCGGAAGGAGCGAGUAAUGGAGUGAUGUUCCAAUCAAUAAAACACGAUAGAGUGCUCAGGUAGGUCGCCGUGGUGGUU [Exclusion Argiie B GF 13]	middle group

Bin this entry: UGACUGGACUGAAGGAGCGGGCGAGACAAAGUCUCGAACUCUUAGUGAUGUUAGGAAAUAACCCAGGUAGGUCGCAGUCUAGUCU
middle group

Bin this entry: AUUAAUUUCAGAGGAUAUCGUUAUUUUUUUUAUUUUAUUCAUUUAUGCAGUGAUGUUGCUAUUAUUCGAGAAGGCUGAUUUAUAA [JR_ExcFMNB_Sub005]
low group

Bin this entry: ACGUAGUUCUAGGAUACCAGCCAAGGUGCCAGGACAAAAGUCCUGGCAGCCAGUGAUGUUGGCCCUUGGCAGCCUAGAACUACGA [Omei KL Theo B Exc B v7]
low group

Bin this entry: AAGUCUCGUUAAUUCGUGGUUUCGAUCGAUACCAGUAGCGAGAGGUACCCUUGGCAGCGAAAUGAGUGAUGUUCAUGAAAGAAGA [KL-XTheoA11]
low group

Bin this entry: GGUCCACGCCAUGCCAGUGAUGUUGGUAAGCGAGGACCGGUACGGCCGCCACUCGUUCAAUACCGUAUCGCCCAUAACCUGGAGA [Oneseror]
low group

Bin this entry: UCAGAGAACGAAGGAUAUUGACCUGUUUUAUGCUAUGAGUGAUGUUCUUAGUAUCAGCGAGAUGAUCAAGAAGGUCGGGUUCGAC [theeternabot_sameState_KL_FMN_B_48]
low group

Bin this entry: UUUAAAUAUAGUGAUGUUAUAUAACAAUGACGAGGACCGGUACGGCCGCCACUCGAGAGAGAUAAUGAUAAAAUACAUAAUUUUC [AstrosSSTrypA#2]
high group
